experiment: NCI Yeast Anticancer Drug Screen. Data for the rad50 strain (AID 155);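 note: 0% = growth of vehicle-only cultures of the same strain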; conditions: S. cerevisiae rad50 strain growth inhibition; at 50.0 µM; hits give high values
The panel holds about 79,000 compounds, 15% with a hit somewhere; the sample as a whole holds those more often.
Exercise: state measured growth inhibition for each of the molecules provided.
Numbers only, in %.

Below are worked cases with known answers.
>>> print(df.to_string())
                                   molecule  meas_value
0  CCN1C(=O)c2cc(=O)[nH]c(O)c2C1C (configuration not stated)         7.8
1  CC(c1ccccc1)n1cnc2c(Cl)ncnc21 (configuration not stated)           5
2  CC1(C)C2CC(=O)C1(C)C(OCc1ccccc1)C2 (configuration not stated)       -21.2
3                      Cc1nnc2n(c1=O)CCCN2C       -0.35
4  O=C(NCCCN1CCCCCC1)C(c1ccccc1)C1CCCCC1 (configuration not stated)        25.3
5  Cc1ccccc1C1OC2=C(Nc3ccc([N+](=O)[O-])cc3N2)C1=O (configuration not stated)        37.5
6        CCc1cccc(C)c1NC(=O)C(=O)CC(=O)CCCO       -37.6
7                  O=C(O)COc1ccccc1C1CCCCC1        0.15

Provide reported growth inhibition for each item, in the same order as listed.
1. CCCCCCCC(CCCCCCC)(C(=O)OCC)C(=O)OCC
2. CCCCCCCCCC(=O)OCC1OC(n2cc(F)c(=O)[nH]c2=O)C(NC(=O)OCc2ccccc2)C(OC(=O)CCCCCCCCC)C1O (configuration not stated)
3. CC(C)(CN1CCCCC1)C(=O)/C=C/c1ccc(Br)cc1
4. CCOC(=O)C1=C(C)N(Cc2ccccc2)C(C)=C(C(=O)OCC)C1c1ccccc1O
5. Nc1ccc([N+](=O)[O-])c(F)c1
6. CC(=O)OCC(OC(C)=O)C(OC(C)=O)C(OC(C)=O)C(OC(C)=O)C(C=O)OC(C)=O (configuration not stated)
7. N#CCCC1C(=O)CCCC1=O
8. O=S1(=O)C=CC(N/N=C/c2cc(Cl)cc(Cl)c2)=C1

## Output
[7.1, -5.9, 66.9, 20.5, -6.05, -31.6, 0.2, 37.7]

Please give growth inhibition, item by item, for the list that follows.
1. Cc1cc([N+](=O)[O-])ccc1NC(=O)C(Br)C(Br)C(=O)O (configuration not stated)
2. CCCCC(C)NC(=O)c1ccccc1 (configuration not stated)

## Output
31.1
4.3

Go through the list and state growth inhibition for each entry.
1. CCCNC(=S)/N=C/c1c(O)c2ccccc2[nH]c1=O
2. O=C(CC(=O)C(F)(F)F)c1ccc2c(c1)Cc1ccccc1-2
3. COc1cc2cc(-c3ccccn3)nc(N)c2cc1OC
4. O=C1c2ccccc2CC12Cc1ccc3c(c1C2=O)CCCC3 (configuration not stated)
5. Cc1cccc(C)c1NC(=O)C(Cl)Cl
6. OC1=CC(=S)NC2CCCCC12 (configuration not stated)

## Output
1. -40
2. -10.2
3. 29.2
4. -11.2
5. -2.9
6. 32.2

Report growth inhibition for each item below.
1. COC(=O)C(Cc1ccc2c(c1)OCO2)(NC(=O)c1ccccc1)P(=O)(OC)OC (configuration not stated)
2. CC1CCC(C(C)(C)NO)C(=O)C1 (configuration not stated)
3. O=c1[nH]c2ccccc2c(=O)n1CCCN1CCN(c2cccc(Cl)c2)CC1
4. CC(=O)[C@@H](C)C(=O)N1C(=O)OC[C@@]12[C@@H]1CC[C@@H](C1)C2(C)C
5. O=C(O)CS(=O)(=O)c1nc2ccccc2[nH]1

## Output
1. -30.5
2. -2.8
3. 22
4. -13.8
5. -27.3

For each of the molecules below, state growth inhibition.
1. Cn1c(=O)c2c(nc(Cl)n2C)n(C)c1=O
2. CC1(C)CC(C)(O)N(CCc2ccccc2)C(=S)N1 (configuration not stated)
3. CO/C=C(/C#N)S(=O)(=O)/C(C#N)=C/OC

## Output
1. 42.5
2. -6.55
3. 32.5
